# assayDetails: in vivo
# experimentalParameters: plasma, inhaled
reportedMetric: concentration at 2 min (ng/mL)
Numeric only. Scale: ng/mL

Prompt line: I am curious: what concentration at 2 min value has been reported for N[C@@H](Cc1ccc(O)c(O)c1)C(=O)O [L-Dopa, Levodopa] ?
Response line: 5000

Value source: patent US9155699B2
